System: c-Abl (mouse)
procedure_summary: phosphorylation enrichment, bacterial display (enrichment ratio); higher = better substrate or ligand; peptides without Tyr show the background;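 note: 11-residue human phosphosite peptides and single-mutation variants displayed on the E. coli surface, counted by deep sequencing, each peptide's frequency after selection divided by its frequency in the unselected input library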;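 note: frequency after pTyr selection over input frequency; kinase dosed for 20-30% of maximal phosphorylation in three min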
Listing of entries alongside the reported phosphorylation enrichment.
// response body must contain only the number

Recorded results for 3 sequences are shown here.
| sequence_content | phosphorylation enrichment |
| --- | --- |
| FSNVLYRPRGA [TMIGD2_Y197_YF] | 0.611 |
| PKGTGYIKTES [STAT1_Y701_L706S] | 0.868 |
| MAQDIYRASFF [ALK_Y1278_R1275Q_YF] | 12.2 |

Here is the next item to consider.
Ask: # lookup: phosphorylation enrichment of SFGENYDNSKS [MAN1B1_Y60]
Result: 0.833

---

experimental_target: EPHB2 (UniProt P29323)
Sequence (P29323 whole entry, looked up): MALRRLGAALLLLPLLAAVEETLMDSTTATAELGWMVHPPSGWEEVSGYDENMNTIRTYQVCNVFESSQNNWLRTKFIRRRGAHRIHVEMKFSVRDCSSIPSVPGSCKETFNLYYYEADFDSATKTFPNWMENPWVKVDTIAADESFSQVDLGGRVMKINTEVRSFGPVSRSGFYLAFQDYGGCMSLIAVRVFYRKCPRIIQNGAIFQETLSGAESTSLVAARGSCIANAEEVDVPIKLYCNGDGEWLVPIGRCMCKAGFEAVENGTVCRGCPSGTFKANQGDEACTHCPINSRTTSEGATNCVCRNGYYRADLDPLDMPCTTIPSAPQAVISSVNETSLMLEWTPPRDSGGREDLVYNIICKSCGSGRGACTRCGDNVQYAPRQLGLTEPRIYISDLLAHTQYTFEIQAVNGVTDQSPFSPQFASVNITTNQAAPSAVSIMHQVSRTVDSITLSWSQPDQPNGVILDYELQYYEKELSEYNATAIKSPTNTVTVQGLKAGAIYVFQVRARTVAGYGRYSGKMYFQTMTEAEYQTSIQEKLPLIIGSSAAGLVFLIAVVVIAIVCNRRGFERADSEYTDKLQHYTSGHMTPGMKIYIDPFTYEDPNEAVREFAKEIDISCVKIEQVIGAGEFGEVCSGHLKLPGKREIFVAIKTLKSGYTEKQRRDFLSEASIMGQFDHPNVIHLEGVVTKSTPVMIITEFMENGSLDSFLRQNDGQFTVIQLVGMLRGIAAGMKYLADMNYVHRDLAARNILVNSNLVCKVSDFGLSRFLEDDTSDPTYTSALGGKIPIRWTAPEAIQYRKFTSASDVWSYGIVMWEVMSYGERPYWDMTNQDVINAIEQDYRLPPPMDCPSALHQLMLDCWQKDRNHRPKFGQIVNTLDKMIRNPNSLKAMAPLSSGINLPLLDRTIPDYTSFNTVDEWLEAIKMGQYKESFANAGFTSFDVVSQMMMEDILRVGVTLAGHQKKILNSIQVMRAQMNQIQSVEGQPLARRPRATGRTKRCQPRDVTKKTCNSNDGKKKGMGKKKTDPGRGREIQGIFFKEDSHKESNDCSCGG
procedure_summary: phosphorylation enrichment, bacterial display (enrichment ratio); higher = better substrate or ligand; peptides without Tyr show the background
quantity_measured: phosphorylation enrichment
Output spec: single numeric token, no unit.

| sequence_content | experimental_target | number |
| --- | --- | --- |
| IFGEEYEEQPR [ZMYM2_Y1033_V1028I] | EPHB2 (UniProt P29323) | 0.647 |

Ask: Kindly state the measured phosphorylation enrichment obtained for SGGGLYRDMGA [CBX8_Y321] with EPHB2 (UniProt P29323).
Result: 0.624

Ask: # value lookup — system EPHB2 (UniProt P29323), readout phosphorylation enrichment, item CTTIHYNYMCK [TP53_Y234_N239K]
Result: 0.562

Ask: Record lookup: for EPHB2 (UniProt P29323), what phosphorylation enrichment belongs to VHNLNYYKKTT [FGFR3_Y647_D646N] ?
Result: 0.449

Ask: Notebook entry, EPHB2 (UniProt P29323) assay: phosphorylation enrichment of WNRDKYAATTT [TRIM39_Y439_G436R] = ?
Result: 0.401

Ask: So what phosphorylation enrichment did QNTADYFDLFG [PTPN11_Y62_G60A_YF] get with EPHB2 (UniProt P29323)?
Result: 13.8

Ask: phosphorylation enrichment of AAARPYHIQKW [ACSBG1_Y677] on EPHB2 (UniProt P29323)?
Result: 0.465

Ask: Fill in the recorded phosphorylation enrichment for this sequence, with EPHB2 (UniProt P29323) as test system: ECKEAYHEGEC [PRKN_Y372]
Result: 0.638

Ask: Request body: readout phosphorylation enrichment, system EPHB2 (UniProt P29323), query TSPKSYPSQKH [CAP2_Y316] . Return the value.
Result: 0.359

Ask: Provide value of phosphorylation enrichment for this record tested with EPHB2 (UniProt P29323): VQNIVYHTASI [CYP39A1_Y102_R103H]
Result: 0.43

---

experimental_target: FGFR1 (UniProt P11362)
Sequence (P11362 whole entry, looked up): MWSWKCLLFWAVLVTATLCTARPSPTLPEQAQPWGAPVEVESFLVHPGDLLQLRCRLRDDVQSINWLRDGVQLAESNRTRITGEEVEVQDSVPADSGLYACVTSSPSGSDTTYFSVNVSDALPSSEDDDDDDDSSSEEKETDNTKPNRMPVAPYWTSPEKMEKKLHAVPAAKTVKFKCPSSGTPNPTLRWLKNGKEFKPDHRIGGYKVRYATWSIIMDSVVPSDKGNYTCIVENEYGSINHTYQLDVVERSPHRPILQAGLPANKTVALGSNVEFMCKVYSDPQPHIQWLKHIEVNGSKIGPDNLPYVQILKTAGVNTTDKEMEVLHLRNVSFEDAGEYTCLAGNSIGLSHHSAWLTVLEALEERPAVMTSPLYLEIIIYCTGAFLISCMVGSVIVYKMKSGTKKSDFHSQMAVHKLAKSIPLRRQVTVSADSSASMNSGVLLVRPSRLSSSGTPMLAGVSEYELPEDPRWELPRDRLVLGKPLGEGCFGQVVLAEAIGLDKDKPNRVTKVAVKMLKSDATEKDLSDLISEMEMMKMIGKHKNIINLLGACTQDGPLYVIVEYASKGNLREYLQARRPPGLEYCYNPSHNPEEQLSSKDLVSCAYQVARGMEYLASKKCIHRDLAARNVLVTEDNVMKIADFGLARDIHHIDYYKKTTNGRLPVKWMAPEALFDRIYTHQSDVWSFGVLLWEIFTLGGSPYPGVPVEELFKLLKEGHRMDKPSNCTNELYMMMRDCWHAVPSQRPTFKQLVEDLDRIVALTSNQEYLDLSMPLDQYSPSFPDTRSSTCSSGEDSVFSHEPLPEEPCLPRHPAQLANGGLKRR
procedure_summary: phosphorylation enrichment, bacterial display (enrichment ratio); higher = better substrate or ligand; peptides without Tyr show the background
quantity_measured: phosphorylation enrichment
Reply: number alone, nothing else.

| sequence_content | phosphorylation enrichment |
| --- | --- |
| FDAHIYEGRVI [PRKCD_Y64] | 0.546 |
| VCRHNYGVVES [HLA-DRB1_Y112_Y107V] | 0.547 |
| CTHDLYMIMRE [FGFR3_Y724] | 0.634 |
| FAKTQYPDIFA [CRX_Y63_V66I_YF] | 0.378 |
| HSREDYFECFQ [ZIM2_Y411_Q408R] | 9.83 |
| GAALAYGLDKS [HSPA9_Y230_A225G] | 0.389 |
| VLAAQYTTVGR [SGSH_Y240_D235V] | 0.352 |
| KPPFSYNALIM [FOXG1_Y186] | 0.455 |

Ask: Query (sequence): TNYCLYLRSLE [MTM1_Y71_R69C] ; field requested: phosphorylation enrichment
Result: 0.814

Ask: Quick one: phosphorylation enrichment for FLGRNYLETLM [DUS3L_Y610_D609N_YF] ?
Result: 0.448

Ask: Any idea what its phosphorylation enrichment is? The sequence is VDTAMYATMQR [TPO_Y55]
Result: 0.518

Ask: Suppose we examine the sequence IPKTWYSAEQF [CD207_Y217] ; what phosphorylation enrichment value has been reported?
Result: 0.494

Ask: May I ask what phosphorylation enrichment has been recorded for FPAVGYHKPHI [IDS_Y225_L221P] ?
Result: 0.412

Ask: Data request, read-out phosphorylation enrichment, for IGSQRYKLGVR [RB1_Y446]
Result: 0.369

Ask: For the sequence shown here, ARMTNCGLPRY [TSPAN12_Y138_Y138C] , give the reported phosphorylation enrichment.
Result: 0.446

Reference for the values: the supplement of paper PMC10065799
